The reported numbers originate from patent US20100056520A1.

test: Solubility measured at room temperature in water, acid and basic conditions (HPLC); type: physicochemical; details: aqueous solution (water, acid and basic conditions), aqueous buffer, read-out: solubility of the anion
reported-endpoint: solubility (µg/mL)
Entry rule: numbers only, all in µg/mL.

Quick one: solubility of `O=C(O)c1ccc(CCCc2c(CCNS(=O)(=O)Cc3ccccc3C(F)(F)F)n(C(c3ccccc3)c3ccccc3)c3ccc(Cl)cc23)cc1` ?
0.11
